Source of measurements: patent US20260137703A1

- TARGET_OR_SYSTEM: CtermHisTag-mEGFR Wild type (Homo sapiens, UniProt P00533)
- Sequence (P00533 whole entry): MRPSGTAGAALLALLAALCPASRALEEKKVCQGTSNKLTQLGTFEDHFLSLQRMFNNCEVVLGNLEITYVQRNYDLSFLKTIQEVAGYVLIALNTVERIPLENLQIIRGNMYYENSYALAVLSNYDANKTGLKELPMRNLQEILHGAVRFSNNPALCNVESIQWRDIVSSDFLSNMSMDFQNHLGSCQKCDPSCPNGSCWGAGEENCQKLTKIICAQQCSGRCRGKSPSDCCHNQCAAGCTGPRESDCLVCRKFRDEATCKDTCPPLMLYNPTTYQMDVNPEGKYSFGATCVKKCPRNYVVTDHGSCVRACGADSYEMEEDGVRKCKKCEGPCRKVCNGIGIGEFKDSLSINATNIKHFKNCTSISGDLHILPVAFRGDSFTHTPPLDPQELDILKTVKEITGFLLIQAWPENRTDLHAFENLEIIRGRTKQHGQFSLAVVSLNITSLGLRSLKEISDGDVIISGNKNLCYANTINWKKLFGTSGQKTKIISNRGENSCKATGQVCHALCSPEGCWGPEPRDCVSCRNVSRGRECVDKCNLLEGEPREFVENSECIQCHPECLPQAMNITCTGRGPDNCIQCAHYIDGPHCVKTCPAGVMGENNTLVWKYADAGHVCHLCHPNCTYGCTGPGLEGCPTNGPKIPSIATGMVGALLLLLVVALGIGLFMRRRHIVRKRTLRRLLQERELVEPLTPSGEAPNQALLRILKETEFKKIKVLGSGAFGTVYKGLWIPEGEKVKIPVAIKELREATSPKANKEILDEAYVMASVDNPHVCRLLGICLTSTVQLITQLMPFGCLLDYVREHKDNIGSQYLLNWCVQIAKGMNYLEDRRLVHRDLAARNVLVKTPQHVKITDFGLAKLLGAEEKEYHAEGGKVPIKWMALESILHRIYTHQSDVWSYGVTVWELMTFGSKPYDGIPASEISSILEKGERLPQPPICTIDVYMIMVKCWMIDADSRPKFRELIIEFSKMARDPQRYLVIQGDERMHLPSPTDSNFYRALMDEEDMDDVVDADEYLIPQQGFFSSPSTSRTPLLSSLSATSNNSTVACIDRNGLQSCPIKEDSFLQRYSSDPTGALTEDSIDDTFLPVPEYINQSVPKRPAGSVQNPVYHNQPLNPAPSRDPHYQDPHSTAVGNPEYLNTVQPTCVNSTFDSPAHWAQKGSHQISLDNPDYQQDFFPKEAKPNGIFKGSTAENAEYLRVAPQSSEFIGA
- ASSAY_EXPLANATION: biochemical
pIC50: −log10 of the molar value.
OBSERVABLE: pIC50

COMPOUND_STRUCTURE: C#Cc1cc(=O)n(C)c2nc(Nc3cccc(N(C)C(=O)CN(C)C)c3)ncc12
TARGET_OR_SYSTEM: CtermHisTag-mEGFR Wild type (Homo sapiens, UniProt P00533)
OBSERVED_MEASUREMENT: 5.00 to 6.00
//
COMPOUND_STRUCTURE: C#Cc1cc(=O)n(-c2ccccc2)c2nc(NC3CCN(S(C)(=O)=O)CC3)ncc12
TARGET_OR_SYSTEM: CtermHisTag-mEGFR Wild type (Homo sapiens, UniProt P00533)
OBSERVED_MEASUREMENT: > 6.00
//
COMPOUND_STRUCTURE: C#Cc1c(-c2ccccc2Cl)c(=O)n(C)c2nc(NCCCCN3CCN(C)CC3)ncc12
TARGET_OR_SYSTEM: CtermHisTag-mEGFR Wild type (Homo sapiens, UniProt P00533)
OBSERVED_MEASUREMENT: < 5.00
//
COMPOUND_STRUCTURE: C#Cc1cc(=O)n([C@H]2CC[C@@H](NC(=O)CCC(=O)OC)CC2)c2nc(Nc3ccc(N4CCN(C)CC4)cc3)ncc12
TARGET_OR_SYSTEM: CtermHisTag-mEGFR Wild type (Homo sapiens, UniProt P00533)
OBSERVED_MEASUREMENT: 5.00 to 6.00
//
COMPOUND_STRUCTURE: C#Cc1cc(=O)n(C2CCCCC2)c2nc(Nc3ccc(N4CCN(C)CC4)cc3)ncc12
TARGET_OR_SYSTEM: CtermHisTag-mEGFR Wild type (Homo sapiens, UniProt P00533)
OBSERVED_MEASUREMENT: > 6.00
//
COMPOUND_STRUCTURE: C#Cc1cc(=O)n2c3nc(ncc13)Nc1ccc(N3CCN(C)CC3)c(c1)CN(C)CCC2
TARGET_OR_SYSTEM: CtermHisTag-mEGFR Wild type (Homo sapiens, UniProt P00533)
OBSERVED_MEASUREMENT: > 6.00
//
COMPOUND_STRUCTURE: C#Cc1cc(=O)n(C)c2nc(Nc3ccc(N4CCN(C)CC4)c(S(=O)(=O)NCC4CCCC4)c3)ncc12
TARGET_OR_SYSTEM: CtermHisTag-mEGFR Wild type (Homo sapiens, UniProt P00533)
OBSERVED_MEASUREMENT: > 6.00
//
COMPOUND_STRUCTURE: C=Cc1c(-c2ccccc2Cl)c(=O)n(C)c2nc(Nc3cccc(CO)c3)ncc12
TARGET_OR_SYSTEM: CtermHisTag-mEGFR Wild type (Homo sapiens, UniProt P00533)
OBSERVED_MEASUREMENT: 5.00 to 6.00

The value of pIC50 measured for the compound C#Cc1cc(=O)n(-c2ccc(NC(=O)C=C)cc2)c2nc(Nc3ccccc3OC)ncc12 turned out to be 5.00 to 6.00

pIC50 reported for this compound C=Cc1cc(=O)n(-c2ccc(OC)cc2OC)c2nc(Nc3ccccc3OC)ncc12 : < 5.00

pIC50 reading for C=Cc1c(-c2ccccc2)c(=O)n(C)c2nc(Nc3ccccc3OC)ncc12 : < 5.00

According to the records, this compound C#Cc1cc(=O)n(-c2ccccc2)c2cc(Nc3ccccc3OC)ncc12 displays pIC50 of < 5.00

Lab note: measured pIC50 of C#Cc1cc(=O)n(-c2ccc(N)cc2)c2nc(Nc3ccccc3OC)ncc12 was > 6.00

GET /value?item= C#Cc1c(C)c(=O)n(C)c2nc(Nc3ccc(N4CCN(C)CC4)cc3)ncc12 &field=pIC50 returns 5.00 to 6.00

pIC50 reported for this compound C#Cc1c(-c2cc(OC)ccc2Cl)c(=O)n(C)c2nc(Nc3ccc(N(C)CCN(C)C)cc3)ncc12 : > 6.00

# pIC50 (compound: C#Cc1cc(=O)n(C)c2nc(Nc3ccc(N4CCN(C)CC4)cc3OC)ncc12 ) is > 6.00

----------
Measured pIC50 accompanies every entry in the list below.
- TARGET_OR_SYSTEM: CtermHisTag-mEGFR Wild type (Homo sapiens)
- ASSAY_EXPLANATION: biochemical
pIC50: −log10 of the molar value.

Consider the following illustrative entries.
COMPOUND: C#Cc1cc(=O)n(C2CCCC2)c2nc(Nc3cccc4c3CCN(C)C4)ncc12 [Example 185]
pIC50: < 5.00
--
COMPOUND: C#Cc1cc(=O)n(C2CCCC2)c2nc(Nc3cccc(CN4CC(CS(C)(=O)=O)C4)c3)ncc12 [Example 181]
pIC50: < 5.00
--
COMPOUND: C=Cc1cc(=O)n(-c2cccc(OC)c2)c2nc(Nc3ccccc3OC)ncc12 [Example 156]
pIC50: < 5.00
--
COMPOUND: C#Cc1cc(=O)n([C@H]2CC[C@@H](NC(C)=O)CC2)c2nc(Nc3ccc(N(C)CCN(C)C)cc3)ncc12 [Example 79]
pIC50: > 6.00
--
COMPOUND: C=Cc1cc(=O)n(-c2ccc(OC)cc2)c2nc(Nc3ccccc3OC)ncc12 [Example 157]
pIC50: < 5.00
--
COMPOUND: C#Cc1cc(=O)n(-c2ccccc2)c2nc(Nc3ccccc3CO)ncc12 [Example 41]
pIC50: < 5.00
--
COMPOUND: C#Cc1cc(=O)n(-c2ccccc2)c2nc(Nc3ccc(N4CCN(C)CC4)c(C)c3)ncc12 [Example 12]
pIC50: > 6.00

Next item in the queue.
The value of pIC50 measured for the compound C#Cc1c(C(=O)N(C)C)c(=O)n(-c2ccccc2)c2nc(Nc3ccccc3OC)ncc12 [Example 146] turned out to be < 5.00

----------
- TARGET_OR_SYSTEM: Phospho-EGFR (Tyr1068) in H1975 C797S cells (CRISPR-edited EGFR C797S) (Homo sapiens, UniProt P00533, C797S/L858R/T790M)
- Sequence (P00533 25-1210 T790M/C797S/L858R): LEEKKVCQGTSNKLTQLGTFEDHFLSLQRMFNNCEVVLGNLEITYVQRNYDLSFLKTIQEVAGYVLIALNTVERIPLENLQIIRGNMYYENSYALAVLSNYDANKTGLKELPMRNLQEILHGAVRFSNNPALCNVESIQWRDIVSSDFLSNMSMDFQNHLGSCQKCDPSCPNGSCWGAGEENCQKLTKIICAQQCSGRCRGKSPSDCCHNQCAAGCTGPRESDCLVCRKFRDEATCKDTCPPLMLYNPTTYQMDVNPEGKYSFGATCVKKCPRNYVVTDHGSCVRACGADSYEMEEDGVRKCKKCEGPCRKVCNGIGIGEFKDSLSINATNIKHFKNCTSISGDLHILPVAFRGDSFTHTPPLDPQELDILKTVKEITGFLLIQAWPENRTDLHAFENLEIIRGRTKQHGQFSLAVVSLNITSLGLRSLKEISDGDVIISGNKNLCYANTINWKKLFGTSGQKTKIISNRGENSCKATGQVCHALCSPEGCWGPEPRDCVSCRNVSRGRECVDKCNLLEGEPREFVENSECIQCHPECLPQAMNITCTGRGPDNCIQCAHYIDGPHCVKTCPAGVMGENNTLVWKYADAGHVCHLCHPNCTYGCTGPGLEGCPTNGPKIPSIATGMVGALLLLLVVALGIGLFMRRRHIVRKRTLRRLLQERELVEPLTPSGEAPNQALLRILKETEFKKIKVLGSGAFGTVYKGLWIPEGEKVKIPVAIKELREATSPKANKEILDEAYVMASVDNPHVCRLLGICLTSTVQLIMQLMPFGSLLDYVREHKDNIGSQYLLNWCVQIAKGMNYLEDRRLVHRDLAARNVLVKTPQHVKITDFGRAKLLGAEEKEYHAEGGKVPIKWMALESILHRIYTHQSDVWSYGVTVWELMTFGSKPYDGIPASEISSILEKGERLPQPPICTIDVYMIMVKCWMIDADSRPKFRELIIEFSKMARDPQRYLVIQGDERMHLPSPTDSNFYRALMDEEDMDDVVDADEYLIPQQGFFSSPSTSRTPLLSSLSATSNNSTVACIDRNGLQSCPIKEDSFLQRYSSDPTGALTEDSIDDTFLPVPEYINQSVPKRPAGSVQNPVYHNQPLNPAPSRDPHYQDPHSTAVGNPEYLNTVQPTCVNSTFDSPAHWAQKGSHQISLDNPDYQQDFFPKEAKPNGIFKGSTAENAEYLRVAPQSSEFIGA
- ASSAY_EXPLANATION: HTRF pEGFR/total EGFR in H1975 C797S cells
- EXPERIMENTAL_CONTEXT: ratio pEGFR/total EGFR, compound 3 hours
OBSERVABLE: IC50

COMPOUND_STRUCTURE: C#Cc1cc(=O)n([C@H]2CC[C@@H](NC(=O)CCC(=O)N(C)C)CC2)c2nc(Nc3ccc(N4CCN(C)CC4)cc3)ncc12
IC50: 1000 to 3000 nM
--
COMPOUND_STRUCTURE: C#Cc1c(-c2cc(F)ccc2Cl)c(=O)n(C)c2nc(Nc3ccc(N(C)CCN(C)C)cc3)ncc12
IC50: < 500 nM
--
COMPOUND_STRUCTURE: C#Cc1cc(=O)n(C)c2nc(Nc3ccc(N4CCN(C)CC4)c(S(=O)(=O)NCC4CCCC4)c3)ncc12
IC50: > 3000 nM

// field: IC50; key: C#Cc1c(-c2ccncc2Cl)c(=O)n(C)c2nc(Nc3ccc(N(C)CCN(C)C)cc3)ncc12 ; value = 1000 to 3000 nM

Field IC50 (entry C#Cc1cc(=O)n([C@H]2CC[C@@H](NC(=O)CC(=O)O)CC2)c2nc(Nc3ccc(N4CCN(C)CC4)cc3)ncc12 ) reads > 3000 nM

The value of IC50 measured for the compound C#Cc1c(-c2cc(OC)ccc2Cl)c(=O)n(C)c2nc(Nc3ccc(N(C)CCN(C)C)cc3)ncc12 turned out to be 500 to 1000 nM

# IC50 (compound: C#Cc1cc(=O)n2c3nc(ncc13)Nc1cccc(c1)OC[C@H]1CC[C@H](C1)C2 ) is 500 to 1000 nM

----------
Entries annotated with measured IC50
- TARGET_OR_SYSTEM: CtermHisTag-mEGFR Wild type (Homo sapiens)
- ASSAY_EXPLANATION: biochemical

COMPOUND: C#Cc1cc(=O)n(-c2ccc(NC(C)=O)cc2)c2nc(Nc3ccccc3OC)ncc12
IC50: 1 to 10 µM

GET /value?item= C#Cc1cc(=O)n(C)c2nc(Nc3cc(-c4cnn(C)c4)c(N4CCOCC4)cc3OC)ncc12 &field=IC50 returns < 1 µM

Field IC50 (entry C#Cc1cc(=O)n(C2CCNC2)c2nc(Nc3ccc(N4CCN(C)CC4)cc3)ncc12 (stereo not shown) ) reads > 10 µM

Kindly note the recorded IC50 for C=Cc1c(-c2ccccc2Cl)c(=O)n(C)c2nc(Nc3ccccc3OC)ncc12 , which is > 10 µM

----------
- TARGET_OR_SYSTEM: Phospho-EGFR (Tyr1068) in H1975 cells (Homo sapiens, UniProt P00533, L858R/T790M)
- Construct: host or cells: H1975
- Sequence (P00533 25-1210 T790M/L858R): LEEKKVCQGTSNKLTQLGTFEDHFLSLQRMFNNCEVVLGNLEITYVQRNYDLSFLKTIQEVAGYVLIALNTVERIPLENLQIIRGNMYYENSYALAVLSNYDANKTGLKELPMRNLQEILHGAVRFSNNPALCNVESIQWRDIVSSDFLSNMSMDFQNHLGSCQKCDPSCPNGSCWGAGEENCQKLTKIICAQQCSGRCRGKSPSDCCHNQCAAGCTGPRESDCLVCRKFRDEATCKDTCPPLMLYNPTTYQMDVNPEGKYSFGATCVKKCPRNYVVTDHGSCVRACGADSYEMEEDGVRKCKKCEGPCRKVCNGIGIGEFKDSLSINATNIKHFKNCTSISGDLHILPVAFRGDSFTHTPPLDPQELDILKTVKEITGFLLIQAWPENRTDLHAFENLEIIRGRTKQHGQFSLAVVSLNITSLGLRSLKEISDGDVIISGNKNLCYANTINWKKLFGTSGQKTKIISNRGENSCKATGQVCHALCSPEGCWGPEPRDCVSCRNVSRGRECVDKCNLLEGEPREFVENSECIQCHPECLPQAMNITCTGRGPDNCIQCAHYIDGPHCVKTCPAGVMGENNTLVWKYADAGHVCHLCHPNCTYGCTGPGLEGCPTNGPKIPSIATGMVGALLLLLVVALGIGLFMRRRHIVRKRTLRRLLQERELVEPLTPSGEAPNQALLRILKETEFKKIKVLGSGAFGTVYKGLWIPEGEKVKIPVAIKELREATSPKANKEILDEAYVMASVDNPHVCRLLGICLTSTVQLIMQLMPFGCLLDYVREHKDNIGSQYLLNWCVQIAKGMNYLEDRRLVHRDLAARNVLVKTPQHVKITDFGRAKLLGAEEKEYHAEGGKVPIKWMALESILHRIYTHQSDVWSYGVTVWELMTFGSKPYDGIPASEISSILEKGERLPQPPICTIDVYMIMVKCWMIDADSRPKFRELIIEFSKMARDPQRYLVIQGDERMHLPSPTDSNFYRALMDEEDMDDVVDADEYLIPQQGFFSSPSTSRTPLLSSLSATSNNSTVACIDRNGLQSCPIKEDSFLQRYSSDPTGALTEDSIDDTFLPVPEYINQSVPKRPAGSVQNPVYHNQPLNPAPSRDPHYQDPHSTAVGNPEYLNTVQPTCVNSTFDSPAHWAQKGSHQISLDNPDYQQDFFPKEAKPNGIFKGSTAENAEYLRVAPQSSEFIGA
- ASSAY_EXPLANATION: HTRF pEGFR/total EGFR in H1975 cells
- Format: cell-based
- EXPERIMENTAL_CONTEXT: ratio pEGFR/total EGFR, compound 3 hours
pIC50: −log10 of the molar value.
OBSERVABLE: pIC50

Sample records with pIC50:
COMPOUND_STRUCTURE: C#Cc1cc(=O)n(-c2ccccc2)c2nc(Nc3ccc(N(C)CCN(C)C)c(C)c3)ncc12
pIC50: > 6.30
--
COMPOUND_STRUCTURE: C#Cc1cc(=O)n([C@H]2CC[C@@H](NC(=O)CCC(=O)OC)CC2)c2nc(Nc3ccc(N4CCN(C)CC4)cc3)ncc12
pIC50: < 5.52
--
COMPOUND_STRUCTURE: C#Cc1c(C)c(=O)n(Cc2ccnn2C)c2nc(Nc3ccc(N4CCN(C)CC4)cc3)ncc12
pIC50: 5.52 to 6.00

# ---- query compound ----
For this compound ( C#Cc1c(-c2ccccc2Cl)c(=O)n(C)c2nc(Nc3ccc(N(C)CCN(C)C)cc3)ncc12 ), measured pIC50 is 5.52 to 6.00
